experiment: LTEA_HepaRG_LDH_cytotoxicity: Cytotoxicity Assessment in the Life Technologies and Expression Analysis (LTEA) Assay (AID 2283563)
Calls of active or inactive are those of the source. The calls were made as follows: active = hit-call score of the fitted dose curve at least 0.9, where 1 is the maximum; inconclusive = response in the unintended direction; inactive = score below 0.9.
Select the matching outcome among TRUE (active), FALSE (inactive)

Task: Identify the outcome logged in this assay for the compound shown: CC(N)=O
Output: FALSE

Task: Identify the outcome logged in this assay for the compound shown: CCN(CC)CCOc1ccc(C(=C(Cl)c2ccccc2)c2ccccc2)cc1
Output: TRUE

Task: Identify the outcome logged in this assay for the compound shown: CN(C)C(=O)NC1(c2ccccc2)CCN(CC[C@@]2(c3ccc(F)c(F)c3)CN(C(=O)c3ccccc3)CCO2)CC1
Output: TRUE

Task: Identify the outcome logged in this assay for the compound shown: Cc1ccc(C(C)(C)C)c(O)c1
Output: FALSE

Task: Identify the outcome logged in this assay for the compound shown: O=C(O)c1[nH]n(-c2ccc(S(=O)(=O)O)cc2)c(=O)c1N=Nc1ccc(S(=O)(=O)O)cc1
Output: FALSE

Task: Identify the outcome logged in this assay for the compound shown: CN(C)C(=O)NC1(c2ccccc2)CCN(CCC[C@]2(c3ccc(Cl)c(Cl)c3)CCCN(C(=O)c3ccccc3)C2)CC1
Output: TRUE

Task: Identify the outcome logged in this assay for the compound shown: CCCCCCCCCCCCCCCCO
Output: FALSE

Task: Identify the outcome logged in this assay for the compound shown: COC(=O)[C@H]1[C@H]2C[C@@H]3c4[nH]c5cc(OC)ccc5c4CCN3C[C@H]2C[C@@H](OC(=O)c2cc(OC)c(OC)c(OC)c2)[C@@H]1OC
Output: TRUE

Task: Identify the outcome logged in this assay for the compound shown: CCCCC(CC)COC(=O)CCCCCCCC(=O)OCC(CC)CCCC (centres undefined)
Output: FALSE

Task: Identify the outcome logged in this assay for the compound shown: OCC(O)CO
Output: FALSE

Task: Identify the outcome logged in this assay for the compound shown: CSc1ccc(Oc2ccc(S(N)(=O)=O)cc2CN(C)C)cc1C
Output: TRUE

Task: Identify the outcome logged in this assay for the compound shown: C/C=C/c1ccc(OC)cc1
Output: FALSE

Task: Identify the outcome logged in this assay for the compound shown: CCCCC(CC)COP(=O)(OCC(CC)CCCC)OCC(CC)CCCC (centres undefined)
Output: FALSE

Task: Identify the outcome logged in this assay for the compound shown: CC(COCC(C)OC(=O)c1ccccc1)OC(=O)c1ccccc1 (centres undefined)
Output: FALSE

Task: Identify the outcome logged in this assay for the compound shown: CN(C)CCCN(C)CCCN(C)C
Output: FALSE

Task: Identify the outcome logged in this assay for the compound shown: CCCCCCC(C=O)=Cc1ccccc1
Output: FALSE

Task: Identify the outcome logged in this assay for the compound shown: Cc1ccc(-c2cc(C(F)(F)F)nn2-c2ccc(S(N)(=O)=O)cc2)cc1
Output: TRUE

Task: Identify the outcome logged in this assay for the compound shown: CS(=O)(=O)c1ccc([C@@H](C[C@H]2CCC(=O)C2)C(=O)Nc2cnccn2)cc1Cl
Output: FALSE

Task: Identify the outcome logged in this assay for the compound shown: CC(C)(O)c1ccc(CNC(=O)c2cccnc2Oc2ccc(F)cc2)cc1
Output: FALSE

Task: Identify the outcome logged in this assay for the compound shown: O=C1c2c(O)cccc2Cc2cccc(O)c21
Output: FALSE

Task: Identify the outcome logged in this assay for the compound shown: O=C(O)CC(O)(CC(=O)O)C(=O)O
Output: FALSE

Task: Identify the outcome logged in this assay for the compound shown: Cc1cn([C@H]2C=C[C@@H](CO)O2)c(=O)[nH]c1=O
Output: FALSE

Task: Identify the outcome logged in this assay for the compound shown: CC(C)(C)c1ccccc1
Output: FALSE

Task: Identify the outcome logged in this assay for the compound shown: CCC(C)N(C)C(=O)c1cc2ccccc2c(-c2ccccc2Cl)n1 (centres undefined)
Output: FALSE
